Quick reference for change in vivo at 50 mg/kg among some molecules
test: In vivo screen APCC: plasma total cholesterol in rats on high fat, high cholesterol diet with 0.5% cholic acid; parameters: species or system male Sprague-Dawley rats; conditions: rat APCC, *Dosed at 50 mg/kg, high fat high cholesterol diet overnight; read-out: % Change in Plasma TC Values (mg/dL)
readout_name: change in vivo at 50 mg/kg (%)

chemical_string	readout_name	units_of_measure	meas_value
CC(C)c1cccc(C(C)C)c1NC(=O)NC(=O)N1c2ccccc2Sc2ccccc21	change in vivo at 50 mg/kg	%	-19
CC(C)c1cccc(C(C)C)c1NC(=O)NC(=O)N(c1ccccc1)c1ccccc1	change in vivo at 50 mg/kg	%	-40
CC(C)c1cccc(C(C)C)c1NC(=O)NC(=O)N(Cc1ccccc1)Cc1ccccc1	change in vivo at 50 mg/kg	%	-13
CCCCCCCCN(CCCCCCCC)C(=O)NC(=O)Nc1c(C(C)C)cccc1C(C)C	change in vivo at 50 mg/kg	%	-5
CC(C)c1cccc(C(C)C)c1NC(=O)NC(=O)N(Cc1ccccc1)C(C)C	change in vivo at 50 mg/kg	%	-27
CC(C)c1cccc(C(C)C)c1NC(=O)NC(=O)N1c2ccccc2CCc2ccccc21	change in vivo at 50 mg/kg	%	-18
CCCCN(CCCC)C(=O)NC(=O)Nc1c(C(C)C)cccc1C(C)C	change in vivo at 50 mg/kg	%	-23
